# tested-system: T1, human MCH-2R (human, UniProt Q969V1 1-340)
# T1 construct: Function was measured in HEK-293 aequorin cells
# T1 sequence (Q969V1 whole entry): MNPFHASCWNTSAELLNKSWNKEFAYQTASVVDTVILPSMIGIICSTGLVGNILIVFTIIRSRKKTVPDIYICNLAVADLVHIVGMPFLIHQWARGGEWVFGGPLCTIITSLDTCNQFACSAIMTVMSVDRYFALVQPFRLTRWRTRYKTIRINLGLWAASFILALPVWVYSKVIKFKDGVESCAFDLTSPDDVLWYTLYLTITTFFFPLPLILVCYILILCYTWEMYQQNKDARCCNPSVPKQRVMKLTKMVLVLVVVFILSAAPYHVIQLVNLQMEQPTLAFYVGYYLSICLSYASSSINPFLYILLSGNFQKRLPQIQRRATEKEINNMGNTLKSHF
# experimental-details: radioligand competition binding on membranes of COS-7 cells transfected with human MCH-2R; radioligand not named
pIC50: −log10 of the molar value. Bridges are numbered along the chain shown (N, C = ends). Where no end group is shown, it is not given here.

| binder | pIC50 |
| --- | --- |
| DFDMLRCMLGRVYRPCWQV (peptide, UniProt P20382 147-165, looked up, disulfide 7-16 (inferred), mature; also called cold MCH; MCH unlabeled peptide) [Melanin-concentrating hormone (MCH)] | 8.00 |

Data provenance is patent US20040132045A1.
